Data provenance: patent US5604206A

method.summary: clinical
assay.conditions: human, in vivo, po
measurement.name: tmax

> print(dat)
                                   molecule  measurement.name  endpoint.value
1  CC(C)Cc1ccc([C@H](C)C(=O)O)cc1 [S(+)-ibuprofen free acid, S(+)-ibuprofen, reference compound]              tmax           2.1 h
